- Assayed Target: T1, human NPR1 extracellular domain expressed with a C-terminal mouse IgG2a (hNPR1-mFc) (human)
- T1 construct: also called hNPR1-Fc; human NPR1 dimer
- T1 chain: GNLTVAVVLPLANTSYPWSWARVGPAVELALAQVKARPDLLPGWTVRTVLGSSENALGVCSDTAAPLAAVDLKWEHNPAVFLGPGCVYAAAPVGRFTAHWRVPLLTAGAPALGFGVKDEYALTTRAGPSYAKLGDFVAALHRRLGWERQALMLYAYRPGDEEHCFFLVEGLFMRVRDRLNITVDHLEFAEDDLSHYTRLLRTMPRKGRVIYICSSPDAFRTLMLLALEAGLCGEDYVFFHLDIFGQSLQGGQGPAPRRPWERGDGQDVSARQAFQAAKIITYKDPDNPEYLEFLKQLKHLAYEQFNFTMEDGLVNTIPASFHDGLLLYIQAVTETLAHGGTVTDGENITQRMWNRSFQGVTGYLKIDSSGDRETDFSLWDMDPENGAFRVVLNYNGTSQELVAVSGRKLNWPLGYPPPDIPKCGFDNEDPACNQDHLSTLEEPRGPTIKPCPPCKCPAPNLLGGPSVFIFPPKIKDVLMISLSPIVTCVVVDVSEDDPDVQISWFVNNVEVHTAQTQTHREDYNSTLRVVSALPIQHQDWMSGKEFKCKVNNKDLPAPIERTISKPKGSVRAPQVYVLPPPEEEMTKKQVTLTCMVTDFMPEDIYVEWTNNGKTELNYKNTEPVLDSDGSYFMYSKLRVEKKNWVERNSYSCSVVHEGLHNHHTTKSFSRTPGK
- Test: SPR, mAb captured, 37 C
Measurement Kind: koff (s⁻¹)
State just the number; it will be interpreted in s⁻¹.

Lookup: Name the reported koff value associated with the binder mAb25497 (antibody, V domains shown) VH: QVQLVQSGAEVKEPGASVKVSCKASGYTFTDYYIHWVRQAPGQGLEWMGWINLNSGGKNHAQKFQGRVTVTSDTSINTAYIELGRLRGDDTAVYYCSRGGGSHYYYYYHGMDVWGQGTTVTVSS VL: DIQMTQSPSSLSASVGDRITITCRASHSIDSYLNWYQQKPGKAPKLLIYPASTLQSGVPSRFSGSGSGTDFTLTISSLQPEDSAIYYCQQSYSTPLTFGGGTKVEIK
Found: 0.00031

Lookup: Follow-up entry: mAb22035 (antibody, V domains shown) VH: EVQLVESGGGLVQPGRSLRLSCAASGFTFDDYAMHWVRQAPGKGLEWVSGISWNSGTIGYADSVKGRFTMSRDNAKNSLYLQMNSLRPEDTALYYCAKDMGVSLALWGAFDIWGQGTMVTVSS VL: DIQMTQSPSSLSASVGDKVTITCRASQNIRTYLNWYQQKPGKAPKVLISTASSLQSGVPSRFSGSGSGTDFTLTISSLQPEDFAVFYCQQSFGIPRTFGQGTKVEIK
Found: 0.000127

Lookup: Follow-up entry: mAb25479 (antibody, V domains shown) VH: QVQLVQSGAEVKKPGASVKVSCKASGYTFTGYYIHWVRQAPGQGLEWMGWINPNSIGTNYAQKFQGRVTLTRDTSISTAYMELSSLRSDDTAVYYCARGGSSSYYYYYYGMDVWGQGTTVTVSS VL: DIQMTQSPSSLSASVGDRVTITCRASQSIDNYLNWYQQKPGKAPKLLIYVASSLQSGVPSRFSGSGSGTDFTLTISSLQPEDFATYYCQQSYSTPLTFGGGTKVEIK
Found: 0.00139
